Could you please report measured koff for the items listed next?
Tested On: T1, recombinant human interleukin 12 (p40/p35 heterodimer) (human, UniProt P29460 23-328; P29459 23-219)
T1 chain 1: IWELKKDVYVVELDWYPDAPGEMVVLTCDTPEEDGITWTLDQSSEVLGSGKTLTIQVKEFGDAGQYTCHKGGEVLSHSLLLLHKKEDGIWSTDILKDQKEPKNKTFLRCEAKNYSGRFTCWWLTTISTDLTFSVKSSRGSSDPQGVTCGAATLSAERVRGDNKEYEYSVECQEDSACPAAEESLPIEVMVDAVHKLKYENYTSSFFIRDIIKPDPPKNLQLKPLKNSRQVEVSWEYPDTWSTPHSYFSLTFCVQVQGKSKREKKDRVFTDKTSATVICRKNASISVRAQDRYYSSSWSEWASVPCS
T1 chain 2: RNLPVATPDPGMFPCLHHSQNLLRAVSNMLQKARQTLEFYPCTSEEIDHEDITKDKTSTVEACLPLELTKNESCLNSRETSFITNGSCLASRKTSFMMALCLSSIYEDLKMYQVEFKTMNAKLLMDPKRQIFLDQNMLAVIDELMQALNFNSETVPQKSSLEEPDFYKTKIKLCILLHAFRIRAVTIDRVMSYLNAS
Assay Comment: BIAcore
Answers are plain numbers, in s⁻¹.

Illustrative cases are given below, each with its answer.
Binder: HHSHDN [Y61 H96 H]
Observed Result: 0.000237
//
Binder: HGWHDN [Y61 H97 W]
Observed Result: 0.00239
//
Binder: HGTHDN [Y61 H97 T]
Observed Result: 0.000588

Here is another binder to look at.
Data request, read-out koff, for HGNHDN [Y61 H97 N]
0.00221

All figures here come from patent US20110123544A1.
